Protocol Text: chemical genetic growth profiling, strain panel (AID 1159580);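 further: tested at 20 µM; growth read once vehicle control cultures reached saturation at 30 °C; 1 = growth at the plate median or of vehicle wells; lower values mean less growth of the strain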
Condition Info: S. cerevisiae deletion strains, growth OD, locus YFR010W, strain ubp6, stronger effect = lower value
Among all 5,500 compounds or so, about 2,000 (36%) were called active. About 18% were inconclusive and are not listed. The list shows a part of the results.
Labelling: normalized growth reported below 1 becomes MET; at or above becomes NOT MET.

Sample answers from the record:
[
  {
    "Molecule": "CN1CCc2cccc3c2C1Cc1ccc(O)c(O)c1-3 (stereo unspecified)",
    "Label Value": "MET"
  },
  {
    "Molecule": "C[C@@H]1CC2C3CCC4=CC(=O)C=C[C@]4(C)[C@@]3(F)[C@@H](O)C[C@]2(C)[C@@]1(O)C(=O)COP(=O)(O)O (stereo partly specified)",
    "Label Value": "MET"
  },
  {
    "Molecule": "O=C(O)c1cc(=O)c2c(OCC(O)COc3cccc4oc(C(=O)O)cc(=O)c34)cccc2o1",
    "Label Value": "MET"
  }
]

Next up:
Query block: Is 1 strictly greater than the molecule's reported normalized growth? molecule: CC1(C)CC2C1CCC1(C)OC1CCC2(C)O (stereo unspecified)
Result block: NOT MET

====

Protocol Text: chemical genetic growth profiling, strain panel (AID 1159580);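 further: tested at 20 µM; growth read once vehicle control cultures reached saturation at 30 °C; 1 = growth at the plate median or of vehicle wells; lower values mean less growth of the strain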
Condition Info: S. cerevisiae deletion strains, growth OD, locus YDL132W, strain cdc53, stronger effect = lower value
The campaign covered roughly 5,500 compounds. About 2,000 (36%) were called active. Inconclusive results (about 18%) are left out. This is one part of the list.
Give measured normalized growth for each item. Keep answers brief.
One number for each entry.

[
  {
    "Compound Structure": "O=C(CCSc1cccs1)Nc1cccc(C(F)(F)F)c1",
    "normalized growth": 0.92
  }
]

For each entry beneath this line, provide reported normalized growth.
1. COc1ccccc1NC(=O)Nc1nn(C)c2cccc(OC)c12
2. CC(=O)C(Sc1nc2ccccc2s1)C(C)=O
3. NC(=NC(=O)c1ccc(Cl)cc1)c1cccs1
4. Cc1onc(-c2ccccc2Cl)c1-c1nc2ccccc2c(=O)o1
5. O=C(Nc1ccccn1)c1cc(-c2ccccc2)c(C(F)(F)F)s1

Result block:
1: 0.925; 2: 0.91; 3: 0.951; 4: 0.975; 5: 0.942

====

Protocol Text: chemical genetic growth profiling, strain panel (AID 1159580);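 further: tested at 20 µM; growth read once vehicle control cultures reached saturation at 30 °C; 1 = growth at the plate median or of vehicle wells; lower values mean less growth of the strain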
Condition Info: S. cerevisiae deletion strains, growth OD, locus YNR030W, strain Alg12, stronger effect = lower value
Among all 5,500 compounds or so, about 2,000 (36%) were called active. Inconclusive results (about 18%) are left out. Some of the results follow.
Experimental Readout: normalized growth
One number for each entry.

Report normalized growth for each item below.
1. O=C(O)CCNC(=S)Nc1cccc(C(F)(F)F)c1
2. COc1cc(N=Cc2ccc3c(c2)OCO3)c(OC)cc1Cl
3. O=C(CC(Nc1ccccc1)c1ccccc1)C1CC1 (stereo not drawn)
4. COC(=O)c1cc(OC)c(OC)cc1NS(=O)(=O)c1ccc(C)cc1

Result block:
[1.03, 1.01, 1, 0.996]

====

Protocol Text: chemical genetic growth profiling, strain panel (AID 1159580);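 further: tested at 20 µM; growth read once vehicle control cultures reached saturation at 30 °C; 1 = growth at the plate median or of vehicle wells; lower values mean less growth of the strain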
Condition Info: S. cerevisiae deletion strains, growth OD, locus YDR334W, strain swr1, stronger effect = lower value
About 2,000 (36%) of roughly 5,500 compounds were called active. Another 18% or so got no clear call; they are omitted. Some of the results follow.
For each of the compounds below, state its normalized growth.
Numbers only.

[
  {
    "Compound": "CS(=O)(=O)OCCCCOS(C)(=O)=O",
    "Experimental Readout": "normalized growth",
    "Result Number": 1.01
  }
]

Please give normalized growth for each item listed below.
1. O=C1CN(/N=C\c2ccc([N+](=O)[O-])o2)C(=O)N1
2. CC(=O)O[C@H]1CC[C@@]2(C)C(=CCC3C2CC[C@@]2(C)C3CC[C@@H]2C(C)CCCC(C)C)C1 (stereo not given in full)

Result block:
0.976
0.988

Provide normalized growth values for the following items, in order.
1. CCn1cc(C(=O)O)c(=O)c2ccc(C)nc21
2. CCN(CC)CCOC(=O)C(Cc1cccc2ccccc12)CC1CCCO1 (stereo not given)
3. C[C@H](COc1ccccc1)N[C@H](C)[C@H](O)c1ccc(O)cc1
4. CCOC(=O)C(C)(N)Cc1ccc(O)c(O)c1 (stereo not given)
5. COc1ccc(CN(CCN(C)C)c2ncccn2)cc1
6. O=C(O)c1cc(O)c(O)c(O)c1
7. C#C[C@]1(O)CCC2C3CCc4cc(O)ccc4C3CC[C@@]21C (stereo not given in full)
8. CCCc1cc(OC)c2c(c1)OCO2

Result block:
1: 0.916; 2: 1.01; 3: 0.996; 4: 0.921; 5: 0.998; 6: 1.04; 7: 1.05; 8: 1.01

Would you be so kind as to report normalized growth for each listed record?
1. C#C[C@]1(O)CCC2C3CCc4cc(OC)ccc4C3CC[C@@]21C (stereo not given in full)
2. Nc1ccc(S(=O)(=O)Nc2nccs2)cc1
3. Nc1nccs1
4. COc1ccc(C[C@H](N)C(=O)N[C@@H]2[C@@H](CO)OC(n3cnc4c(N(C)C)ncnc43)[C@@H]2O)cc1 (stereo not given in full)
5. CCOC(=O)c1ccc(N)cc1
6. CCn1cc(C(=O)O)c(=O)c2cnc(N3CCNCC3)nc21

Result block:
1: 0.983; 2: 1.01; 3: 0.997; 4: 0.977; 5: 1.02; 6: 1.02
